Below, each of the compounds is paired with its reported IC50 value.
target: human 11βHSD1 enzyme (Homo sapiens); construct: stably transfected with a construct containing fill-length human 11βHSD1 enzyme (in pCMVHyg); experiment: HeLa GRE4-βGal/11βHSD1 cell reporter assay (cortisone to cortisol conversion, β-galactosidase readout); settings: HeLa GRE4-βGal/11βHSD1 cells, cortisone 1 μM, overnight incubation
Sequence (P28845 whole entry): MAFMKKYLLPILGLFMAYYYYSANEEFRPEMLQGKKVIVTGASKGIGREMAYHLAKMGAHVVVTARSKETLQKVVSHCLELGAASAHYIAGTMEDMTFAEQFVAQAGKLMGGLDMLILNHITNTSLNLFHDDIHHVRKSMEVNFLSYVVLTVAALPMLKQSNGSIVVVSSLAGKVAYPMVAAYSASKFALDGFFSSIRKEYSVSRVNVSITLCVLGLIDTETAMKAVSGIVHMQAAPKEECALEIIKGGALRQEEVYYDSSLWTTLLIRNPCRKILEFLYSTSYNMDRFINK
Could you give me the number in nM? Just the number is fine.

compound	endpoint label	unit abbreviation	val
CC(C)S(=O)(=O)N1CCCC(C(=O)c2ccc(F)cc2)C1 (stereo not drawn)	IC50	nM	10

Problem: Look up IC50: O=C(c1ccc(F)cc1)C1CCCN(C(=O)Cc2ccc(F)cc2)C1 (stereo not drawn)
Result: 83

Problem: Look up IC50: O=C(c1ccc(F)cc1)C1CCCN(C(=O)c2ccc(Cl)s2)C1 (stereo not drawn)
Result: 206
